Numbers sourced from patent US20220144922A1.

# Tgt: T1, postfusion RSV F ectodomain, subtype B (respiratory syncytial virus subtype B)
# T1 construct: extracellular domain; also called Postfusion subtype B
# Assay text: BLI, IgG on sensor
Measured endpoint: Kd (nM)
Report only the number, with the unit nM understood.

Exam item: Please give the documented Kd of ADI-15626 (antibody, V domains shown, IgG) VH: EVQLVESGAEVKKPGSSVKVSCKASGGTFSSYEISWVRQAPGQGLEWMGGINPMFGAANYAQKFQDRVTIIADKSTGTVYMELSSLRSEDTALYYCARERYPSTDDYYRSGRYYGEWGQGTTVTVSS VL: ETTLTQSPSTLSASVGDRVTITCRASQSIRSWLAWYQQKPGKAPKLLIYRASTSDSGVPSRFSGSGSGTEFTLTISSLQPDDFAIYYCQQYNSIPVTFGQGTKLEIK
Marked response: 0.653

Exam item: Please give the documented Kd of ADI-15577 (antibody, V domains shown, IgG) VH: QVQLVQSGAEVKKPGSSVKVSCKASGGTFGSYAISWVRQAPGQGLEWMGGTIPIFGTADHAQKFQGRVTITADKSTSTAYMELSSLRSEDTAVYYCARGVFRVGCSDTSCLKNYYGTDVWGQGTTVTVSS VL: QSVLIQPASVSGSPGQSITVSCTGSSGDVGAYKYVSWYQQHPGRGPKLIIYDVSARPSGISDRFSGSKSGNTASLTISGLQAEDEADYYCSSYSSSSTLVVFGGGTKVTVL
Marked response: 0.679

Exam item: Please give the documented Kd of ADI-15604 (antibody, V domains shown, IgG; also called Antibody Number 170) VH: EVQLLESGGGLVKPGGSLRLSCGASGFKFSDYYMSWIRQAPGKGLEWVSHISSSNSYINYADSVKGRFTISRDNARNSLSLQMNSLRAEDTAVYYCARFPLYCSRSSCSHYVDYWGQGTLVTVSS VL: QSVLTQPPSVSGAPGQRVTISCTGSGSNIGAGYDVHWYQQLPGTAPKLLIYDNNNRPSGVPDRFSGSKSGTSASLAITGLQVEDEADYYCQSYDRSLSVVFGGGTKVTVL
Marked response: 1.77

Continuing:
Exam item: Please give the documented Kd of ADI-15588 (antibody, V domains shown, IgG; also called Antibody Number 155) VH: EVQLVESGPGLVKPSETLSLICRVFGGSVRRGDYNWNWIRQPPGKGLEWIGYIDYSGTTKYNPSLKSRVTISEDTSRNQFSLELRSVTAADTAMYYCARDVGSTPYNYYGMDVWGQGTTVTVSS VL: EIVLTQSPGTLSLSPGERATLSCRASQTIKNNYLAWYQQKPGQAPRLLMYGVSSRPTGIPDRFSGSGSGTDFSLTIDRLEPEDFAVYYCQQFGRSPELTFGGGTKVEIK
Marked response: 0.953

Exam item: Please give the documented Kd of ADI-15611 (antibody, V domains shown, IgG) VH: QVQLVESGAEVKKPGSSVKVSCKASGGTFGRDSISWVRQAPGQGLEWMGGINPIFHTSHYAQKFQGRVTITADESTSTAYMELGNLRSEDTAMYYCARVPPPRGHCESTSCLWGTYFAFWGQGTLVTVSS VL: ETTLTQSPATLSLSPGERATLSCRASQRVRSYLAWYQQKPGQAPRLLIYDASIRATGIPARFSGSGSGADFTLTISSLEPEDFAVYYCQLRDYWPPTWTFGQGTKVEIK
Marked response: 0.609
